Where do these numbers come from? They come from ChEMBL document CHEMBL4043310.

assay: Cmax in C57BL6 mouse at 5 mg/kg, sc by HPLC-MS/MS method; assay type: ADME, organism-based; set-up: dose 5 mg/kg, route subcutaneous; conditions: in vivo
Assay endpoint: Cmax (ng/mL)
Only the number, expressed in ng/mL, is required.

[ask] Give reported Cmax value for CCc1ccn2ccnc2c1N1CCCN([C@@H](CC(N)=O)C2CCN(C(=O)C3C[C@@H]4CC[C@H]3O4)CC2)CC1 (single isomer, unassigned)
[reply] 682

----------
Listed next: entries and their corresponding microsomal CLint at 1 µM.
assay: Intrinsic clearance in human liver microsomes at 1 uM after 30 mins in presence of NADPH by LC-MS/MS method; type: ADME, microsome; settings: liver microsomes, read-out: CLH
Only the number, expressed in µL/min/mg, is required.

Sample answers from the record:
1. COc1ccn2ccnc2c1N1CCCN(Cc2csc(-c3ccccc3)n2)CC1    67
2. Cn1ncc2cccc(N3CCCN(Cc4csc(-c5ccccc5)n4)CC3)c21    150
3. Cc1ccn2ccnc2c1N1CCCN(CC2CCCN(C(=O)C3CCCC3)C2)CC1 (racemic)    148
4. c1ccc(-c2nc(CN3CCCN(c4nccc5cccnc45)CC3)cs2)cc1    171

[ask] Give reported microsomal CLint at 1 µM value for CCc1ccn2ccnc2c1N1CCCN(CC2CCN(C(=O)[C@@H]3C[C@H]4CC[C@@H]3O4)CC2)CC1
[reply] 25

----------
assay: n-Octanol-buffer distribution co-efficient, log D of the compound at 0.5 to 2 mg after 1 hr by shake flask method; format: physicochemical; details: n-octanol/buffer
Listed next: entries and their corresponding logD at 1 h.
// response body must contain only the number

1. Cc1ccn2ccnc2c1N1CCCN(CC2CCN(C(=O)[C@H]3C[C@@H]4CC[C@H]3O4)CC2)CC1 (racemic)    0.4
2. CCc1ccn2ccnc2c1N1CCCN(CC2CCN(C(=O)[C@@H]3C[C@H]4CC[C@@H]3O4)CC2)CC1    0.8
3. COc1ccn2ccnc2c1N1CCCN(Cc2csc(-c3ccccc3)n2)CC1    1.7
4. Cn1ncc2cccc(N3CCCN(Cc4csc(-c5ccccc5)n4)CC3)c21    3.8
5. Cc1ccn2ccnc2c1N1CCCN(CC2CCCN(C(=O)C3CCCC3)C2)CC1 (racemic)    1.8
6. COc1ccc2cccnc2c1N1CCCN(Cc2csc(-c3ccccc3)n2)CC1    3.4

[ask] Give reported logD at 1 h value for Cc1ccn2ccnc2c1N1CCCN(CC2CCN(C(=O)[C@@H]3C[C@@H]4CC[C@H]3O4)CC2)CC1 (racemic)
[reply] 0.7

[ask] Give reported logD at 1 h value for Cc1cc(N2CCCN(Cc3csc(-c4ccccc4)n3)CC2)c2nccn2c1
[reply] 3.7

[ask] Give reported logD at 1 h value for CC(C)c1cc2cccnc2c(N2CCCN(Cc3csc(-c4ccccc4)n3)CC2)n1
[reply] 2.5

[ask] Give reported logD at 1 h value for FC(F)(F)c1ccn2ccnc2c1N1CCCN(Cc2csc(-c3ccccc3)n2)CC1
[reply] 5.1

[ask] Give reported logD at 1 h value for Cc1ccn2ccnc2c1N1CCCN(CC2CCN(C(=O)C3CCCC3)CC2)CC1
[reply] 1.7

[ask] Give reported logD at 1 h value for c1ccc(-c2nc(CN3CCCN(c4nccc5cccnc45)CC3)cs2)cc1
[reply] 3.4

----------
assay: n-Octanol-buffer distribution co-efficient, log D of the compound at 0.5 to 2 mg after 1 hr by shake flask method; assay type: physicochemical; settings: n-octanol/buffer
Listed next: entries and their corresponding logD at 1 h.
// response body must contain only the number

[ask] Give reported logD at 1 h value for Cc1ccn2ccnc2c1N1CCCN(CC2CCN(C(=O)C3CCOC3)CC2)CC1 (stereo not given)
[reply] 0.2

[ask] Give reported logD at 1 h value for CCc1ccn2ccnc2c1N1CCCN(CC2CCN(C(=O)C3C[C@@H]4CC[C@H]3O4)CC2)CC1 (single isomer, unassigned)
[reply] 0.8

[ask] Give reported logD at 1 h value for Cc1ccn2ccnc2c1N1CCCN(Cc2csc(-c3ccccc3)n2)CC1
[reply] 2.8

[ask] Give reported logD at 1 h value for FC(F)(F)Oc1ccc2cccnc2c1N1CCCN(Cc2csc(-c3ccccc3)n2)CC1
[reply] 3

[ask] Give reported logD at 1 h value for CCc1ccn2ccnc2c1N1CCCN([C@@H](CC(N)=O)C2CCN(C(=O)C3C[C@@H]4CC[C@H]3O4)CC2)CC1 (single isomer, unassigned)
[reply] 1.1
